tested on: HT29 colon; test: NCI tumour cell line growth inhibition, 48 h
readoutLabel: GI50

>  <compound>
CCC(=O)c1c(C(F)(F)F)n([O-])c2cc(N3CCNCC3)c(F)cc2[n+]1=O

>  <testedSystem>
HT29 colon

>  <GI50>
2.1 µM

$$$$
>  <compound>
COc1cc(-c2cc(/C=C3\C(=O)Nc4cc(Cl)ccc43)[nH]n2)cc(OC)c1OC

>  <testedSystem>
HT29 colon

>  <GI50>
3.46 µM

$$$$
>  <compound>
Clc1nc(Cl)c2ncn(C/C=C\COc3cccc(OC/C=C\Cn4cnc5c(Cl)nc(Cl)nc54)c3)c2n1

>  <testedSystem>
HT29 colon

>  <GI50>
> 100 µM

$$$$
>  <compound>
O=c1oc2ccc(Br)cc2c(=O)n1-c1ccc(Br)cc1F

>  <testedSystem>
HT29 colon

>  <GI50>
3.09 µM

$$$$
>  <compound>
Oc1c(I)cc(I)cc1CNCCN(Cc1ccccn1)Cc1ccccn1

>  <testedSystem>
HT29 colon

>  <GI50>
2.3 µM

$$$$

Per the record, O=C1C(Br)=CC2C1C1C3CCC3C2(Br)C12OCCO2 (stereo unspecified) has GI50 of 2.75 µM

Entry CCCCCCCCCC(CCCC(O)CC(=O)O)OC1OC(COC2OC(C)C(O)C(O)C2O)C(O)C(O)C1OC1OC(CO)C(O)C(O)C1OC1OC(C)C(OC(=O)CC(C)C)C(O)C1O (stereo unspecified) — recorded GI50 = > 60 µM

Summary for this compound, `CCN1C(C)(C)CC(Oc2ccc(C(=O)Nc3ccc(NC(=O)Nc4cc(C(C)(C)C)on4)cc3)nc2)CC1(C)C` : GI50 is 1.58 µM

compound `CN1CCN(c2ccc3[nH]c(C4=C(O)c5nc(CCl)n(C)c5C(=O)C4=O)nc3n2)CC1` , GI50 observed: 13.7 µM

Record summary for [C-]#[O+].[C-]#[O+].[C-]#[O+].[C-]#[O+].[O-]C(c1ccccc1[PH+]1OC(C(F)(F)F)(C(F)(F)F)c2ccccc21)(C(F)(F)F)C(F)(F)F.[Re] (stereo unspecified) : reported GI50 = 3.6 µM

`C/C(=C1\SC(=NCc2cccs2)NC1=O)c1ccc2ncccc2c1` has a reported GI50 of 10.9 µM

====

tested on: UO-31 renal; assay: NCI tumour cell line growth inhibition, 48 h
Let's look at some compounds and their measured TGI.

As a guide, the following entries are already answered.
>  <compound>
Clc1nc(Cl)c2ncn(C/C=C\COc3cccc(OC/C=C\Cn4cnc5c(Cl)nc(Cl)nc54)c3)c2n1

>  <recordedValue>
> 100 µM

$$$$
>  <compound>
C=C1CCC(OC(C)=O)C2(C)C(OC(C)=O)CC3OC3(C)C2C(OC(C)=O)C2C(C)C(=O)OC2C1Cl (stereo unspecified)

>  <recordedValue>
> 100 µM

$$$$
>  <compound>
Brc1ccc(-c2[nH]c3ccccc3c2N=Nc2ccccc2)cc1

>  <recordedValue>
29.9 µM

$$$$
>  <compound>
CCOc1ccccc1N1C(=O)C(=O)C(c2nc3ccccc3s2)C(=O)C1=O

>  <recordedValue>
> 100 µM

$$$$
>  <compound>
O=C1C(N2CCOCC2)=C(Cl)C(=O)c2ncccc21

>  <recordedValue>
> 5.86 µM

$$$$

Data point: `O=[As]O` ; TGI = > 100 µM

====

test system: IGROV1 ovarian; assay: NCI tumour cell line growth inhibition, 48 h
readoutLabel: TGI

The following compounds have reported results that may help.
>  <compound>
O=C(OCc1nc2nc(Cl)nc(N3CCOCC3)c2[nH]1)n1ccnc1

>  <readoutLabel>
TGI

>  <recordedValue>
2.64 µM

$$$$
>  <compound>
Cc1ccc(NC(=O)c2cc(S(=O)(=O)Nc3n[nH]c(=O)n3-c3ccccc3)c(S)cc2Cl)cc1

>  <readoutLabel>
TGI

>  <recordedValue>
> 100 µM

$$$$
>  <compound>
CNS(=O)(=O)NNS(=O)(=O)c1cccc([N+](=O)[O-])c1

>  <readoutLabel>
TGI

>  <recordedValue>
> 100 µM

$$$$
>  <compound>
N#Cc1c(-c2ccc(Cl)cc2)cc(-c2ccc(Nc3ccnc4cc(Cl)ccc34)cc2)nc1N

>  <readoutLabel>
TGI

>  <recordedValue>
> 100 µM

$$$$
>  <compound>
COc1cc(-c2cc(/C=C3\C(=O)Nc4cc(Cl)ccc43)[nH]n2)cc(OC)c1OC

>  <readoutLabel>
TGI

>  <recordedValue>
37.2 µM

$$$$

Reported TGI ( CC(C)C1(Cl)CCC2C3(C)CCCC(C)(C(=O)O)C3CC(Cl)C2(Cl)C1Cl (centres undefined) ) = > 100 µM

Record CCCCCCCCCC(CCCC(O)CC(=O)O)OC1OC(COC2OC(C)C(O)C(O)C2O)C(O)C(O)C1OC1OC(CO)C(O)C(O)C1OC1OC(C)C(OC(=O)CC(C)C)C(O)C1O (centres undefined) , field TGI: > 60 µM

For record `O=[N+]([O-])c1ccc(OCc2nnc(CCCCCCCCc3nnc(COc4ccc([N+](=O)[O-])cc4)o3)o2)cc1` the listed TGI is > 100 µM

TGI reported for this compound CCNCC(O)COc1ccc2c(c1)[n+]([O-])nc(N)[n+]2[O-] (centres undefined) : > 100 µM

====

This section presents compounds with their documented GI50 values.
system: SK-MEL-5 melanoma; test: NCI tumour cell line growth inhibition, 48 h

>  <compound>
O=C1C(Br)=CC2C1C1C3CCC3C2(Br)C12OCCO2 (stereo unspecified)

>  <recordedValue>
3.19 µM

$$$$
>  <compound>
COc1ccccc1-c1cc(=O)c2c(C)ccnc2[nH]1

>  <recordedValue>
22.6 µM

$$$$
>  <compound>
O=C(NCCCN1CCC(N2CCCCC2)CC1)C1=Cc2cc(Br)ccc2OC1

>  <recordedValue>
1.89 µM

$$$$
>  <compound>
N[C@H]1C[C@@H]1c1ccc(-c2cccc(O)c2)cc1

>  <recordedValue>
15.5 µM

$$$$
>  <compound>
CC(=O)OCc1cnc2c3c(nc4ccccc4c13)C(=O)c1cccnc1-2

>  <recordedValue>
0.0373 µM

$$$$

Consider now this further compound.
Briefly, GI50 measured for `COc1cc(-c2cc(/C=C3\C(=O)Nc4cc(Cl)ccc43)[nH]n2)cc(OC)c1OC` : 1.43 µM

====

system: KM12 colon; assay: NCI tumour cell line growth inhibition, 48 h; in the data active = GI50 below about 0.43 µM; inactive = the rest
Assign a class; possible classes are active, inactive

>  <compound>
C/C(=C1\SC(=NCc2cccs2)NC1=O)c1ccc2ncccc2c1

>  <testedSystem>
KM12 colon

>  <answerLabel>
inactive

$$$$
>  <compound>
COc1cc(C)cc2c1[nH]c1ccccc12

>  <testedSystem>
KM12 colon

>  <answerLabel>
inactive

$$$$
>  <compound>
Cc1ncc(C(=O)Nc2ccc(CN3CCN(C)CC3)c(C(F)(F)F)c2)cc1C#Cc1c(N)ncc2ccc(F)cc12

>  <testedSystem>
KM12 colon

>  <answerLabel>
active

$$$$
>  <compound>
Clc1ccc(Nc2nnc(CNc3ccccc3)c3ccccc23)cc1

>  <testedSystem>
KM12 colon

>  <answerLabel>
inactive

$$$$

stdin: Assay outcome for `O=C(OCc1nc2nc(Cl)nc(N3CCOCC3)c2[nH]1)n1ccnc1` : what was it?
stdout: inactive

stdin: Hi, sorry to bother you, what did the test record for `CSc1nc(N)cc(Oc2ccc(-c3nc(Nc4cccc(C(F)(F)F)c4)n[nH]3)cc2)n1` ?
stdout: inactive

stdin: Please indicate how the test categorized `Clc1nc(Cl)c2ncn(C/C=C\COc3cccc(OC/C=C\Cn4cnc5c(Cl)nc(Cl)nc54)c3)c2n1` .
stdout: inactive

====

Entries and their TGI
test system: KM12 colon; assay: NCI tumour cell line growth inhibition, 48 h

So, `COc1ccc2cc(C(=O)CCC(=O)O)ccc2c1` ? Its TGI was > 100 µM

====

Listing: TGI of selected compounds
test system: 786-0 renal; test: NCI tumour cell line growth inhibition, 48 h

>  <compound>
O=c1[nH]cnc2c1ccn2C1OC(CO)C(O)C1O (stereo unspecified)

>  <recordedValue>
> 100 µM

$$$$
>  <compound>
CC(=O)N1C(Nc2ccccc2)CCN1c1ccccc1 (stereo unspecified)

>  <recordedValue>
> 10 µM

$$$$
>  <compound>
C[C@]12CCC3c4ccc(O)cc4CC[C@H]3C1CC(=O)NC2=O (stereo partly specified)

>  <recordedValue>
> 10 µM

$$$$
>  <compound>
CNS(=O)(=O)NNS(=O)(=O)c1cccc([N+](=O)[O-])c1

>  <recordedValue>
> 100 µM

$$$$
>  <compound>
CCOC(=O)Nc1cc(NC(/C=N/NC(C)=O)C(=O)OCC)c(OC)cc1NC(C)=O (stereo unspecified)

>  <recordedValue>
> 100 µM

$$$$
>  <compound>
c1ccc(Cc2cc(-c3ccccc3)n[nH]2)cc1

>  <recordedValue>
43.4 µM

$$$$

The value of TGI measured for the compound `Cc1n[nH]c(=O)n1/N=C/c1ccc([N+](=O)[O-])cc1` turned out to be > 100 µM

According to the records, this compound `N[C@H]1C[C@@H]1c1ccc(-c2cccc(O)c2)cc1` displays TGI of > 100 µM

Memo: `c1cc2ccc3cc4ncccc4c4ccc(c1)c2c34` , reported TGI: > 100 µM

// sample COC(=O)/C(=N/NC(N)=O)C(C(=O)C(=O)Nc1ccc(C)cc1)c1nc2ccc(C(=O)c3ccccc3)cc2[nH]c1=O (stereo unspecified) , its TGI was > 100 µM

Looking up CN1c2ccc(O)c(O)c2-c2cc(O)cc3c2C1CCC3 (stereo unspecified) , I found its TGI recorded as 35.5 µM
